Hello, the source for this data is paper PMC12864922, in case you need it.

# assay_system: TDP-43 (Homo sapiens, UniProt Q13148 1-414)
# Sequence (Q13148 whole entry): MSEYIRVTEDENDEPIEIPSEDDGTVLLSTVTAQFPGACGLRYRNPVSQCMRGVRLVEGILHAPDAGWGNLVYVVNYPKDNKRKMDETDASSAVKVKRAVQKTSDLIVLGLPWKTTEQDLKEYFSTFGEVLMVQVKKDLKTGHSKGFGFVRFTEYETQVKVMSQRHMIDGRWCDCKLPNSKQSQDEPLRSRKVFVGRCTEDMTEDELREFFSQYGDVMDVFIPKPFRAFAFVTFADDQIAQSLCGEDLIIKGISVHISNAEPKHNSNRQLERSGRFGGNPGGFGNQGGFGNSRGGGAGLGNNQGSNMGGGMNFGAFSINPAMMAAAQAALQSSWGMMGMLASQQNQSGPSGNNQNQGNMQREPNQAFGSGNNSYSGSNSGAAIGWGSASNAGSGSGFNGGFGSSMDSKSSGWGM
# run_description: RNA Bind-n-Seq with designed 260-mer pool; 25 mM Tris-HCl, 150 mM KCl, 3 mM MgCl2, BSA (printed 500 mg/mL), 20 units/mL SUPERase IN; pH not stated; 500 nM RNA pool, 1 h, 4 C; TDP-43 5, 50, 500 nM; high values mean tight binding
# experimental_parameters: protein: recombinant; tags: SBP (GST cleaved off with PreScission; pGEX-GST-SBP)
Over roughly 9,900 sequences, “r (bound/input frequency ratio)” has its median near 0.7; the highest 2% begin near 6.5. The sample holds the highest values, similar sequences and a random draw of the others, so the mix is not that of the screen.
Quick list: binding signal per entry.

binder: ENSMUSG00000090935.60|Synj2bp (ssRNA) RNA: GGGAGUUCUACAGUCCGACGAUCGCUUCGAUAUCCGCAUGCUAAUUACCUGCACCUGGAUAUGGGACAGUAGGCUUUUACACUGUUCUUGUGAAUAGGUUUGUAAGCUUCAAAGUCUGCUUUACUUUAUCUUCUGUUAUGAUUGCCUUUGUCAGCAUAGGCAGGAGUCCUUUAGGAUUUCUGCCUAUCAGUAAAAGAAGUAUGUAACCCAAGUUCUACCUUCAGUGGAUUAAAGUUUCAUUAAGUGAAAAUGGAAAGAAAGUAGAAUUACUUGGUAAGAGGCCAAAUGAGGAUACAGAGGCUGCUCUUGCGGUCGCACUAGUGUGGAAUUCUCGGGUGUCAAGG
binding signal: 0.778 R (bound/input frequency ratio)
//
binder: ENSMUSG00000061578.89|Ksr2 (ssRNA) RNA: GGGAGUUCUACAGUCCGACGAUCGCUUCGAUAUCCGCAUGCUACAAACAUCUGAUUUUAGAGGUCCCAUUCCAAGAUGGAAGUCACCGGUUGCCGCUGAGCACACAAUUCUGAAGGACAGUAGGCAGUCCUGCAGGUCUUUUUUAGCACAGGGCCUCUCUGGGGACCAGUCCCUGGCCUUCACCCUUCUCCCAUUUUGUAAGAACACUGUUCUAACUCACCUCAUGCCCACGCUACCCUGGGCAACUGGAGAACACCAUAGCGUUUCAGCUGAUGUGACAUUUGGUGUGACCUUUACCAGUUCCUCUUGCGGUCGCACUAGUGUGGAAUUCUCGGGUGUCAAGG
binding signal: 0.288 R (bound/input frequency ratio)
